- Procedure Text: NCI Yeast Anticancer Drug Screen. Data for the mec2-1 strain (AID 157)
- Condition Set: S. cerevisiae mec2-1 strain, at 50.0 µM, hits give high values
The panel holds about 79,000 compounds, 15% with a hit somewhere; the sample as a whole holds those more often.
For each of the compounds below, state its growth inhibition.
Numbers only, in %.

Some compounds with recorded growth inhibition:
What growth inhibition value was documented for this compound, O=[N+]([O-])c1ccc(OP(=O)(O)O)cc1 ?
13.3

What growth inhibition value was documented for this compound, CCCCCCCCNC=O ?
11.1

What growth inhibition value was documented for this compound, CNC(=O)c1ccccc1CC1(O)CCCC1 ?
-15.5

What growth inhibition value was documented for this compound, FC12CCC(c3ccccc3)(CC1)CC2 ?
-8.55

What growth inhibition value was documented for this compound, O=C(NC1CCCCC1)Oc1ccc[nH]c1=O ?
-16.8

I would be grateful if you could provide growth inhibition for each of the following entries.
1. Brc1ccc(C2NC(c3ccccc3)c3c(ccc4ccccc34)O2)cc1 (centres undefined)
2. CCn1c2ccccc2c2c3ncc4cccn4c3ccc21
3. Brc1ncnc2c1ncn2C1CCCO1 (centres undefined)

1. 77.7
2. -6.95
3. -12.8

I would be grateful if you could provide growth inhibition for each of the following entries.
1. O=C(O)/C=C/c1ccccc1Cl
2. NC(=O)c1ncc[nH]c1=O
3. CCCCCCCCCCCCCCCCCCCCCCCCSC(=N)N
4. O=C(O)c1cccc(-n2cnc3c(=O)[nH]cnc32)c1
5. COc1ccc(C(=O)C(C)C(O)C(=O)O)c(O)c1C (centres undefined)
6. CCCCCCCCCCCCCCCCS(=O)(=O)c1ccc(S(=O)(=O)CS(C)(=O)=O)cc1[N+](=O)[O-]
7. O=C(N=Nc1c(O)[nH]c2c(Cl)cc(Cl)cc12)c1ccccc1O
8. Cc1ccc(S(=O)(=O)N(CCO)CC(C)O)cc1 (centres undefined)

10.1
5.35
0.15
-3.85
14.9
-16.2
-0.55
-24.1

I would be grateful if you could provide growth inhibition for each of the following entries.
1. CSc1cc(C)c(OC(=O)Nc2cc(C)ccc2C)c(C)c1
2. COc1cc(OC)c2nccc(NCCCN(C)C)c2c1[N+](=O)[O-]
3. [N-]=[N+]=Nc1ccc2[nH]c3ccccc3c(=O)c2c1
4. CCOP(=O)(CCP(=O)(CCP(=O)(OCC)OCC)CCP(=O)(OCC)OCC)OCC

0.8
-22.4
-1.05
2.5

I would be grateful if you could provide growth inhibition for each of the following entries.
1. CN1CCCC1c1cccnc1.O=C(O)c1ccccc1O.O=C([O-])c1ccccc1[OH2+].O=C([O-])c1ccccc1[OH2+].O=C([O-])c1ccccc1[OH2+].[Mn+2] (centres undefined)
2. CN1CCCS/C1=C1/SC(=S)N(c2ccccc2)C1=O

-14.2
13.8

I would be grateful if you could provide growth inhibition for each of the following entries.
1. COc1ccc(C2S/C(=C\c3cccc(OC)c3)C(=O)N2NC(=O)Cc2ccccc2)cc1 (centres undefined)
2. CC(=O)Nc1cc(C)c(C(=O)O)c(C)c1

1. -27.1
2. -19.4
